Each entry below lists one item and its recorded half-life at 20 μM value.
Assay: Stability in human fecal homogenate
Assay type: in vitro ADME
Settings: 20% fecal homogenate (supernatant), pH 6.8, 20% human fecal homogenate, anaerobic, 37° C., read-out: t½: Human Feces anaerobic (converted)
Bridge positions count the residues as written; N and C are the ends. Square brackets hold non-standard residues; d marks the D form. Peptide text beside a SMILES is read from it. Trp(7-Me) = Cc1cccc2c(C[C@H](N)C(=O)O)c[nH]c12; 2Nal = N[C@@H](Cc1ccc2ccccc2c1)C(=O)O; AEF = NCCOc1ccc(C[C@H](N)C(=O)O)cc1; Cit = NC(=O)NCCC[C@H](N)C(=O)O; αMeL = CC(C)C[C@](C)(N)C(=O)O; Pen = CC(C)(S)[C@H](N)C(=O)O; αMeK = C[C@](N)(CCCCN)C(=O)O; Dab = NCC[C@H](N)C(=O)O; Aib = CC(C)(N)C(=O)O; βAla = NCCC(=O)O

Record excerpt, results attached:
- COMPOUND: "CC(=O)NCCCC[C@@H]1NC(=O)[C@H](Cc2c[nH]c3c(C)cccc23)NC(=O)[C@H]([C@@H](C)O)NC(=O)[C@H](CCNC(C)=O)NC(=O)[C@@H](NC(C)=O)C(C)(C)SSC(C)(C)[C@@H](C(=O)N[C@@H](Cc2ccc(OCCN)cc2)C(=O)N[C@@H](Cc2ccc3ccccc3c2)C(=O)N[C@@](C)(CCCCN)C(=O)N[C@@H](CCCCNC(C)=O)C(=O)N[C@@H](CC(N)=O)C(=O)N[C@H](CC(C)C)C(N)=O)NC1=O [compound 335] (Ac-[Pen][Dab](Ac)T[Trp(7-Me)]K(Ac)[Pen][AEF][2Nal][αMeK]K(Ac)N[dL]-NH2; disulfide 1-6)"
  half-life at 20 μM: "> 24 h"
- COMPOUND: "CC(=O)NCCCC[C@@H]1NC(=O)[C@H](Cc2c[nH]c3c(C)cccc23)NC(=O)[C@H]([C@@H](C)O)NC(=O)[C@H](CO)NC(=O)[C@@H](NC(C)=O)C(C)(C)SSC(C)(C)[C@@H](C(=O)N[C@@H](Cc2ccc(OCCN)cc2)C(=O)N[C@@H](Cc2ccc3ccccc3c2)C(=O)N[C@@](C)(CCCCN)C(=O)N[C@@H](CCCCNC(C)=O)C(=O)N[C@@H](CC(N)=O)C(=O)N[C@H](CC(C)C)C(N)=O)NC1=O [compound 334] (Ac-[Pen]ST[Trp(7-Me)]K(Ac)[Pen][AEF][2Nal][αMeK]K(Ac)N[dL]-NH2; disulfide 1-6)"
  half-life at 20 μM: "> 24 h"
- COMPOUND: "CC(=O)NCCCC[C@H](NC(=O)[C@](C)(CCCCN)NC(=O)[C@H](Cc1ccc2ccccc2c1)NC(=O)[C@H](Cc1ccc(OCCN)cc1)NC(=O)[C@H]1NC(=O)[C@H](CCCCNC(=O)CCN)NC(=O)[C@H](Cc2c[nH]c3c(C)cccc23)NC(=O)[C@H]([C@@H](C)O)NC(=O)[C@H](CC(N)=O)NC(=O)[C@@H](NC(C)=O)C(C)(C)SSC1(C)C)C(=O)N[C@@H](CC(N)=O)C(=O)N[C@H](CC(C)C)C(N)=O"
  half-life at 20 μM: "> 24 h"
- COMPOUND: "CC(=O)NCCCC[C@@H]1NC(=O)[C@H](Cc2c[nH]c3c(C)cccc23)NC(=O)[C@H]([C@@H](C)O)NC(=O)CNC(=O)[C@@H](NC(C)=O)C(C)(C)SSC(C)(C)[C@@H](C(=O)N[C@@H](Cc2ccc(OCCN)cc2)C(=O)N[C@@H](Cc2ccc3ccccc3c2)C(=O)N[C@@](C)(CCCCN)C(=O)N[C@@H](CCCCNC(C)=O)C(=O)N[C@@H](CC(N)=O)C(=O)N[C@H](CC(C)C)C(N)=O)NC1=O [compound 329] (Ac-[Pen]GT[Trp(7-Me)]K(Ac)[Pen][AEF][2Nal][αMeK]K(Ac)N[dL]-NH2; disulfide 1-6)"
  half-life at 20 μM: "> 24 h"
- COMPOUND: "CC(=O)NCCCC[C@H](NC(=O)[C@](C)(CC(C)C)NC(=O)[C@H](Cc1ccc2ccccc2c1)NC(=O)[C@H](Cc1ccc(OCCN)cc1)NC(=O)[C@H]1NC(=O)[C@H](CCCNC(N)=O)NC(=O)[C@H](Cc2c[nH]c3c(C)cccc23)NC(=O)[C@H]([C@@H](C)O)NC(=O)[C@H](CC(N)=O)NC(=O)[C@@H](NC(C)=O)C(C)(C)SSC1(C)C)C(=O)N[C@@H](CC(N)=O)C(=O)NCCC(N)=O [compound 227] (Ac-[Pen]NT[Trp(7-Me)][Cit][Pen][AEF][2Nal][αMeL]K(Ac)N[βAla]-NH2; disulfide 1-6)"
  half-life at 20 μM: "> 24 h"

Input: Requested read-out: half-life at 20 μM. Entry: CC(=O)NCCCC[C@@H]1NC(=O)[C@H](Cc2c(C)[nH]c3ccccc23)NC(=O)[C@H]([C@@H](C)O)NC(=O)[C@H](CC(N)=O)NC(=O)[C@@H](NC(C)=O)C(C)(C)SSC(C)(C)[C@@H](C(=O)N[C@@H](Cc2ccc(OCCN)cc2)C(=O)N[C@@H](Cc2ccc3ccccc3c2)C(=O)N[C@@](C)(CCCCN)C(=O)N[C@@H](CCCCNC(C)=O)C(=O)N[C@@H](CC(N)=O)C(=O)N[C@H](CCCCN)C(N)=O)NC1=O
Output: > 24 h

Input: Requested read-out: half-life at 20 μM. Entry: CC(=O)NCCCC[C@@H]1NC(=O)[C@H](Cc2c[nH]c3c(C)cccc23)NC(=O)[C@H]([C@@H](C)O)NC(=O)[C@H](CC(N)=O)NC(=O)[C@@H](NC(C)=O)C(C)(C)SSC(C)(C)[C@@H](C(=O)N[C@@H](Cc2ccc(OCCN)cc2)C(=O)N[C@@H](Cc2ccc3ccccc3c2)C(=O)N[C@@](C)(CCCCN)C(=O)N[C@@H](CCCCNC(C)=O)C(=O)N[C@@H](CC(N)=O)C(=O)N[C@H](C(N)=O)C(C)C)NC1=O
Output: > 19.5 h

Input: Requested read-out: half-life at 20 μM. Entry: CC(=O)NCCCC[C@H](NC(=O)[C@](C)(CCCCN)NC(=O)[C@H](Cc1ccc2ccccc2c1)NC(=O)[C@H](Cc1ccc(OCCN)cc1)NC(=O)[C@H]1NC(=O)[C@H](CCC(N)=O)NC(=O)[C@H](Cc2c[nH]c3c(C)cccc23)NC(=O)[C@H]([C@@H](C)O)NC(=O)C(C)(C)NC(=O)[C@@H](NC(C)=O)C(C)(C)SSC1(C)C)C(=O)N[C@@H](CC(N)=O)C(=O)NCCC(N)=O [compound 240] (Ac-[Pen][Aib]T[Trp(7-Me)]Q[Pen][AEF][2Nal][αMeK]K(Ac)N[βAla]-NH2; disulfide 1-6)
Output: 4 h

Input: Requested read-out: half-life at 20 μM. Entry: CC(=O)NCCCC[C@H](NC(=O)[C@](C)(CCCCN)NC(=O)[C@H](Cc1ccc2ccccc2c1)NC(=O)[C@H](Cc1ccc(OCCN)cc1)NC(=O)[C@H]1NC(=O)[C@H](CCCCNC(=O)CC(F)(F)F)NC(=O)[C@H](Cc2c[nH]c3c(C)cccc23)NC(=O)[C@H]([C@@H](C)O)NC(=O)[C@H](CC(N)=O)NC(=O)[C@@H](NC(C)=O)C(C)(C)SSC1(C)C)C(=O)N[C@@H](CC(N)=O)C(=O)N[C@H](CC(C)C)C(N)=O
Output: > 24 h
